# Test system: Liver
# measurementDescription: Drug metabolism in iv dosed Swiss-Webster mouse liver measured per gram of tissue over 5 to 45 mins
# Type: ADME, organism-based
# runConditions: in vivo
readoutType: Drug metabolism (nmol·min)
Numbers only, in nmol·min.

I'm hoping you can list Drug metabolism for every compound here, please.
1. CCCCN1CCC(C(=O)OCC)(c2ccccc2)CC1.Cl
2. CCCCCCN1CCC(C(=O)OCC)(c2ccccc2)CC1.Cl
3. CCOC(=O)C1(c2ccccc2)CCN(C)CC1.Cl [MEPERIDINE HYDROCHLORIDE]
4. CCCN1CCC(C(=O)OCC)(c2ccccc2)CC1.Cl

Response:
83.8
153.3
926.7
263.3

// data source = ChEMBL document CHEMBL3271963
